# credit: paper PMC6260593

# Measurement Protocol: Cytotoxicity towards B16 melanoma cells
# Assay type: cell-based
# Measurement Conditions: mouse, read-out: Inhibitory activity [IC50] Cytotoxicity
Reported Metric: IC50 (µM)

>>> result_value("O=c1c(O)c(-c2ccc(O)cc2)oc2cc(O)cc(O)c12 [Kaempferol (1), kaempferol]")
25.6
>>> result_value("C[C@@H]1O[C@@H](Oc2cc(O)c3c(=O)c(O)c(-c4ccc(O)cc4)oc3c2)[C@H](O)[C@H](O)[C@H]1O [α-Rhamnoisorobin (2), kaempferol 7-O-α-L-rhamnopyranoside]")
22.9

* * *

# Measurement Protocol: in vitro
# Measurement Conditions: mouse
IC50 at 24 h overview
Reported Metric: IC50 at 24 h

>>> result_value("C[C@@H]1O[C@@H](Oc2cc(O)c3c(=O)c(O)c(-c4ccc(O)cc4)oc3c2)[C@H](O)[C@H](O)[C@H]1O [α-Rhamnoisorobin (2), kaempferol 7-O-α-L-rhamnopyranoside]")
"> 100 µM"
>>> result_value("C[C@@H]1O[C@@H](Oc2cc(O)c3c(=O)c(O[C@@H]4O[C@@H](C)[C@H](O)[C@@H](O)[C@H]4O)c(-c4ccc(O)cc4)oc3c2)[C@H](O)[C@H](O)[C@H]1O [Kaempferitrin (4), kaempferol-3,7-O-α-dirhamnoside]")
"> 100 µM"
>>> result_value("C[C@@H]1O[C@@H](Oc2c(-c3ccc(O)cc3)oc3cc(O)cc(O)c3c2=O)[C@H](O)[C@H](O)[C@H]1O [Afzelin (3), kaempferol 3-O-α-L-rhamnopyranoside]")
"> 100 µM"

* * *

# Measurement Protocol: Cytotoxicity in RAW264.7 cells (MTT)
# Measurement Conditions: mouse, RAW264.7 cells
Reported Metric: IC50 at 24 h

>>> result_value("CC(=O)CCCCn1c(=O)c2c(ncn2C)n(C)c1=O [Pentoxifylline, pentoxifylline, reference compound]")
"> 1000 µM"
>>> result_value("O=c1c(O)c(-c2ccc(O)cc2)oc2cc(O)cc(O)c12")
"> 100 µM"

* * *

# Measurement Protocol: Cytotoxicity towards B16 melanoma cells
# Type: cell-based
# Measurement Conditions: mouse, read-out: Inhibitory activity [IC50] Cytotoxicity
Reported Metric: IC50

>>> result_value("C[C@@H]1O[C@@H](Oc2cc(O)c3c(=O)c(O[C@@H]4O[C@@H](C)[C@H](O)[C@@H](O)[C@H]4O)c(-c4ccc(O)cc4)oc3c2)[C@H](O)[C@H](O)[C@H]1O [Kaempferitrin (4), kaempferol-3,7-O-α-dirhamnoside]")
"> 100 µM"
>>> result_value("OC[C@H]1O[C@@H](Oc2ccc(O)cc2)[C@H](O)[C@@H](O)[C@@H]1O [Arbutin, reference compound]")
"> 200 µM"
>>> result_value("C[C@@H]1O[C@@H](Oc2c(-c3ccc(O)cc3)oc3cc(O)cc(O)c3c2=O)[C@H](O)[C@H](O)[C@H]1O [Afzelin (3), kaempferol 3-O-α-L-rhamnopyranoside]")
"> 100 µM"
